test: in vivo; conditions: cynomolgus monkey, po, 10 mg/kg
Here the recorded bioavailability is given for each entry.
Report the figure in % without appending any unit label.

In: Note bioavailability for the molecule shown: CNc1cc(Nc2cccn(-c3ccccn3)c2=O)nc2c(C(=O)N[C@H]3CC[C@@H]3OC)cnn12 (single isomer, unassigned)
Out: 47

Let's switch to this molecule now.
In: Using the record for CNc1cc(Nc2cccn(-c3ncccc3F)c2=O)nc2c(C(=O)N[C@@H]3C[C@@H]3F)cnn12 , state its measured bioavailability.
Out: 97

* * *

// half-life lookup, one value per entry
assay: in vivo; conditions: C57Bl/6, mouse, po, 10 mg/kg
Answer with a number only, understood to be in h.

# annotated cases, reported half-life shown
In: Specify reported half-life for the molecule shown: CNc1cc(Nc2cccn(-c3ccccn3)c2=O)nc2c(C(=O)N[C@H]3CC[C@@H]3OC)cnn12 (single isomer, unassigned)
Out: 2

In: State, in one line, measured half-life of CNc1cc(Nc2cccn(-c3ncccc3F)c2=O)nc2c(C(=O)N[C@@H]3CC[C@H]3OC)cnn12
Out: 2.1

Attention now shifts to the item below.
In: Provide one value: measured half-life of CNc1cc(Nc2cccn(-c3ncccc3F)c2=O)nc2c(C(=O)N[C@@H]3C[C@@H]3F)cnn12
Out: 2.2

* * *

Attribute: bioavailability
experiment: in vivo; settings: C57Bl/6, mouse, po, 10 mg/kg
Expressed in %, but write only the number.

In: Name the recorded bioavailability of the item CNc1cc(Nc2cccn(-c3ncccc3F)c2=O)nc2c(C(=O)N[C@@H]3C[C@@H]3F)cnn12 in your answer.
Out: 52

Let us examine a further case.
In: Quote bioavailability reported for CNc1cc(Nc2cccn(-c3ccccn3)c2=O)nc2c(C(=O)N[C@H]3CC[C@@H]3OC)cnn12 (single isomer, unassigned) please.
Out: 70

* * *

assay: in vivo; conditions: beagle, dog, po, 10 mg/kg
Recorded half-life by entry
Dear colleague, please return just the value in min, with no unit written.

In: Please supply the value of reported half-life for the item CNc1cc(Nc2cccn(-c3ccccn3)c2=O)nc2c(C(=O)N[C@H]3CC[C@@H]3OC)cnn12 (single isomer, unassigned)
Out: 318

Now consider the entry below.
In: Tell me half-life reported for CNc1cc(Nc2cccn(-c3ncccc3F)c2=O)nc2c(C(=O)N[C@@H]3C[C@@H]3F)cnn12
Out: 180

* * *

Listed here: items and their measured half-life.
experiment: in vivo; settings: cynomolgus monkey, po, 10 mg/kg
Report as a plain number; the unit h is understood.

In: For the compound CNc1cc(Nc2cccn(-c3ccccn3)c2=O)nc2c(C(=O)N[C@H]3CC[C@@H]3OC)cnn12 (single isomer, unassigned) , give its reported half-life.
Out: 3.8

Let us examine a further case.
In: Respond only with half-life recorded for CNc1cc(Nc2cccn(-c3ncccc3F)c2=O)nc2c(C(=O)N[C@@H]3C[C@@H]3F)cnn12
Out: 1.4

* * *

Measured half-life accompanies every entry in the list below.
assay: in vivo; conditions: Sprague-Dawley, rat, po, 10 mg/kg
Give a bare numeral; the unit h is implied.

// worked examples, half-life included
In: For the molecule CNc1cc(Nc2cccn(-c3ncccc3F)c2=O)nc2c(C(=O)N[C@@H]3CC[C@H]3OC)cnn12 , give its reported half-life.
Out: 5.9

In: For the molecule CNc1cc(Nc2cccn(-c3ncccc3F)c2=O)nc2c(C(=O)N[C@@H]3C[C@@H]3F)cnn12 , give its measured half-life value.
Out: 2.7

Others:
In: Query half-life for CNc1cc(Nc2cccn(-c3ccccn3)c2=O)nc2c(C(=O)N[C@H]3CC[C@@H]3OC)cnn12 (single isomer, unassigned)
Out: 1.2

* * *

assay: in vivo; details: beagle, dog, po, 10 mg/kg
QUANTITY KIND: bioavailability (%)
State just the number; it will be interpreted in %.

In: Identify measured bioavailability corresponding to CNc1cc(Nc2cccn(-c3ncccc3F)c2=O)nc2c(C(=O)N[C@@H]3C[C@@H]3F)cnn12
Out: 51

For the next question, use this molecule.
In: For the molecule CNc1cc(Nc2cccn(-c3ccccn3)c2=O)nc2c(C(=O)N[C@H]3CC[C@@H]3OC)cnn12 (single isomer, unassigned) , report bioavailability.
Out: 47
